# procedure_details: Cytotoxicity by Trypan blue exclusion in BCBL-1 cells
# condition_parameters: human
recorded_endpoint: CC50 at 48 h (µM)
Report only the number, with the unit µM understood.

Name the reported CC50 at 48 h value associated with the molecule Cc1ccc(/C=C/C(=O)CC(=O)/C=C/c2ccc(C)o2)o1
26.4

----------
# assayed_target: APE1 (Homo sapiens, UniProt P27695)
# Sequence (P27695 whole entry): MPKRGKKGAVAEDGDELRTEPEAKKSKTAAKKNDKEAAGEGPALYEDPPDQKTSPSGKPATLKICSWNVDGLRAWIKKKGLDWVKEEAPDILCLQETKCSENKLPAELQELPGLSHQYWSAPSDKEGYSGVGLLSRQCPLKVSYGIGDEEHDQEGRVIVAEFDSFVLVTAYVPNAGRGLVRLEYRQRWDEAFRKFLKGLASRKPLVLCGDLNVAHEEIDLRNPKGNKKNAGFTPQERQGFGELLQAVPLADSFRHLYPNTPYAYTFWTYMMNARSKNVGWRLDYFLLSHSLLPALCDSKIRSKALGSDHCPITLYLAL
recorded_endpoint: Kd (nM)
Report only the number, with the unit nM understood.

Fill in the recorded Kd for this molecule, with APE1 (Homo sapiens, UniProt P27695) as test system: Cc1ccc(/C=C/C(=O)CC(=O)/C=C/c2ccc(C)o2)o1 [C10]
189

----------
# procedure_details: Cytotoxicity (MTT assay) in iSLK.219 cells
# Format: cell-based
# condition_parameters: human
recorded_endpoint: CC50 at 48 h (µM)
Report only the number, with the unit µM understood.

Name the reported CC50 at 48 h value associated with the compound Cc1ccc(/C=C/C(=O)CC(=O)/C=C/c2ccc(C)o2)o1
75

----------
# procedure_details: in vitro
# condition_parameters: human
recorded_endpoint: CC50 at 48 h (µM)
Report only the number, with the unit µM understood.

Name the reported CC50 at 48 h value associated with the compound CCCCCCCCC/C(=C\C1=C(C)C(=O)C(OC)=C(OC)C1=O)C(=O)O
112

----------
# EC50 values compiled below
# Tested on: KSHV
# procedure_details: KSHV virion production (encapsidated viral DNA in media) from TPA-induced BCBL-1 cells
# Assay type: cell-based, Kaposi's sarcoma-associated herpesvirus (KSHV)
# condition_parameters: Human gammaherpesvirus 8, BCBL1, 120 h; TPA-induced BCBL-1; encapsidated viral DNA in media 5 days post-induction; read-out: EC50 for blocking KSHV virion production
Report only the number, with the unit µM understood.

chemical_structure=Cc1ccc(/C=C/C(=O)CC(=O)/C=C/c2ccc(C)o2)o1 recorded_endpoint=EC50 experimental_result=0.16

Please turn your attention to the following entry.
Name the reported EC50 value associated with the compound CCCCCCCCC/C(=C\C1=C(C)C(=O)C(OC)=C(OC)C1=O)C(=O)O
8.5

----------
# assayed_target: APE1 redox activity (Homo sapiens, UniProt P27695)
# Sequence (P27695 whole entry): as above
recorded_endpoint: pIC50
FYI, pIC50 means -log10 of a concentration in mol per litre.

Fill in the recorded pIC50 for this molecule, with APE1 redox activity (Homo sapiens, UniProt P27695) as test system: Cc1ccc(/C=C/C(=O)CC(=O)/C=C/c2ccc(C)o2)o1
4.77
